I'd be grateful if you could share measured MIC for these entries.
- Tested on: Acinetobacter baumannii (ATCC 19606)
- assayComment: MIC, broth microdilution
- conditionParameters: Acinetobacter baumannii, ATCC19606, read-out: Compound MIC on Bacterial Strains: A. baumannii ATCC 19606

Sample answers from the record:
{"compound": "CN[C@@H]1[C@@H](O)[C@@H](O[C@@H]2[C@@H](O)[C@H](O[C@H]3O[C@H](CNC[C@H](O)CO)CC[C@H]3N)[C@@H](N)C[C@H]2NC(=O)[C@@H](O)CN)OC[C@]1(C)O", "readout": "MIC", "result": "> 8 µg/mL"}
{"compound": "CN[C@@H]1C(O)[C@@H](OC2C(O)C(O[C@H]3O[C@H](CN)CCC3N)[C@@H](N)C[C@H]2NC(=O)[C@@H](O)[C@@H](O)CN)OCC1(C)O (stereo partly drawn)", "readout": "MIC", "result": "> 8 µg/mL"}
{"compound": "CN[C@@H]1[C@@H](O)[C@@H](O[C@@H]2[C@@H](O)[C@H](O[C@H]3O[C@H](CNCCO)CC[C@H]3N)[C@@H](N)C[C@H]2NC(=O)[C@@H](O)CNN)OC[C@]1(C)O", "readout": "MIC", "result": "> 8 µg/mL"}
{"compound": "NCC[C@H](O)C(=O)N[C@@H]1C[C@H](N)[C@@H](O[C@H]2O[C@H](CN)[C@@H](O)[C@H](O)[C@H]2O)[C@H](O)[C@H]1O[C@H]1O[C@H](CO)[C@@H](O)[C@H](N)[C@H]1O [Amikacin, reference compound]", "readout": "MIC", "result": "1 to 8 µg/mL"}

Below are some compounds; for each one, tell me its MIC.
1. CN[C@@H]1[C@@H](O)[C@@H](O[C@@H]2[C@@H](O)[C@H](O[C@H]3O[C@H](CNCCO)CC[C@H]3N)[C@@H](N)C[C@H]2NC(=O)[C@@H](O)CCCN)OC[C@]1(C)O
2. CN[C@@H]1[C@@H](O)[C@@H](O[C@@H]2[C@@H](O)[C@H](O[C@H]3O[C@H](CNCCO)CC[C@H]3N)[C@@H](N)C[C@H]2NC(=O)C2(O)CNC2)OC[C@]1(C)O

Completion:
1. > 8 µg/mL
2. > 8 µg/mL

Below are some compounds; for each one, tell me its MIC.
1. CCN[C@@H]1C[C@H](N)[C@@H](O[C@H]2OC(CN)=CC[C@H]2N)[C@H](O)[C@H]1O[C@H]1OC[C@](C)(O)[C@H](NC)[C@H]1O [Netilmicin, reference compound]
2. CNC[C@@H]1CCC(N)[C@@H](OC2C(O)C(O[C@H]3OCC(C)(O)[C@H](NC)C3O)[C@H](NC(=O)[C@@H](O)C(O)CN)C[C@@H]2N)O1 (stereo in doubt)
3. CN[C@@H]1C(O)[C@@H](OC2C(O)C(O[C@H]3O[C@H](CNC[C@@H](O)CO)CCC3N)[C@@H](N)C[C@H]2NC(=O)[C@@H](O)CN)OCC1(C)O (stereo partly drawn)
4. CN[C@@H]1[C@@H](O)[C@@H](O[C@@H]2[C@@H](O)[C@H](O[C@H]3O[C@H](CNCCO)CC[C@H]3N)[C@@H](N)C[C@H]2NC(=O)[C@@H](O)CN)OC[C@]1(C)O
5. CN[C@@H]1[C@@H](O)[C@@H](O[C@@H]2[C@@H](O)[C@H](O[C@H]3O[C@H](CNCCO)CC[C@H]3N)[C@@H](N)C[C@H]2NC(=O)[C@@H](O)CCN)OC[C@]1(C)O
6. NC[C@H]1O[C@H](O[C@H]2[C@H](O)[C@@H](O[C@H]3O[C@H](CO)[C@@H](O)[C@H](N)[C@H]3O)[C@H](N)C[C@@H]2N)[C@H](N)C[C@@H]1O [Tobramycin, reference compound]

Completion:
1. > 8 µg/mL
2. > 8 µg/mL
3. > 8 µg/mL
4. > 8 µg/mL
5. > 8 µg/mL
6. 1 to 8 µg/mL

====

- Tested on: ECM6009 aac(3)-II
- assayComment: microbe, parasite or virus in culture
- Assay type: cell-based, Escherichia coli
- conditionParameters: Escherichia coli, read-out: Compound MIC on Bacterial Strains: ECM6009 aac(3)-II
readout: MIC

Sample answers from the record:
{"compound": "CN[C@@H]1[C@@H](O)[C@@H](O[C@@H]2[C@@H](O)[C@H](O[C@H]3O[C@H](CNCC(O)CO)CC[C@H]3N)[C@@H](N)C[C@H]2NC(=O)[C@@H](O)CCN)OC[C@]1(C)O (stereo partly drawn)", "target": "ECM6009 aac(3)-II", "result": "< 1 µg/mL"}
{"compound": "CN[C@@H]1C(O)[C@@H](OC2C(O)C(O[C@H]3O[C@H](CNCCO)CCC3N)[C@@H](N)C[C@H]2NC(=O)[C@@H](O)[C@@H](O)CN)OCC1(C)O (stereo partly drawn)", "target": "ECM6009 aac(3)-II", "result": "< 1 µg/mL"}

Now take the following compound into account.
Lab note: measured MIC of `CN[C@@H]1[C@@H](O)[C@@H](O[C@@H]2[C@@H](O)[C@H](O[C@H]3O[C@H](CNCCO)CC[C@H]3N)[C@@H](N)C[C@H]2NC(=O)[C@@H](O)CN)OC[C@]1(C)O` was < 1 µg/mL

====

I'd be grateful if you could share measured MIC for these entries.
- System: EC1002 aph(3′)-IV
- assayComment: organism not typed
- Type: cell-based
- conditionParameters: read-out: Compound MIC on Bacterial Strains: EC1002 aph(3′)-IV

Sample answers from the record:
{"compound": "CN[C@@H]1C(O)[C@@H](OC2C(O)C(O[C@H]3O[C@H](CNC[C@@H](O)CO)CCC3N)[C@@H](N)C[C@H]2NC(=O)[C@@H](O)CN)OCC1(C)O (some centres unmarked) [Compound 44]", "readout": "MIC", "result": "< 1 µg/mL"}
{"compound": "CN[C@@H]1[C@@H](O)[C@@H](O[C@@H]2[C@@H](O)[C@H](O[C@H]3O[C@H](CNCCF)CC[C@H]3N)[C@@H](N)C[C@H]2NC(=O)[C@@H](O)CN)OC[C@]1(C)O [Compound 46]", "readout": "MIC", "result": "< 1 µg/mL"}

Below are some compounds; for each one, tell me its MIC.
1. CN[C@@H]1[C@@H](O)[C@@H](O[C@@H]2[C@@H](O)[C@H](O[C@H]3O[C@H](CNCCO)CC[C@H]3N)[C@@H](N)C[C@H]2NC(=O)[C@@H](O)CCCN)OC[C@]1(C)O [Compound 40]
2. CCN[C@@H]1C[C@H](N)[C@@H](O[C@H]2OC(CN)=CC[C@H]2N)[C@H](O)[C@H]1O[C@H]1OC[C@](C)(O)[C@H](NC)[C@H]1O [Netilmicin, reference compound]
3. CN[C@@H]1C(O)[C@@H](OC2C(O)C(O[C@H]3O[C@H](CN)CCC3N)[C@@H](N)C[C@H]2NC(=O)[C@@H](O)[C@@H](O)CN)OCC1(C)O (some centres unmarked) [Compound 21]

Completion:
["1 to 8 µg/mL", "< 1 µg/mL", "1 to 8 µg/mL"]
